- assay-name: Plasma clearance in Swiss mouse at 1 mg/kg, iv measured up to 24 hrs by LC-MS analysis
- Assay type: ADME, organism-based
property-label: clearance (mL/min/kg)
Write down the numeric answer in mL/min/kg and omit the unit.

clearance measured on Cc1cc(Nc2ccc(S(F)(F)(F)(F)F)cc2)n2nc(C(F)(F)F)nc2n1 = 8.2

====

- assay-name: Volume of distribution at steady state in Swiss mouse at 1 mg/kg, iv measured up to 24 hrs by LC-MS analysis
- Format: ADME, organism-based
- test-context: in vivo, read-out: Vdss
property-label: Vd (L/kg)
Write down the numeric answer in L/kg and omit the unit.

Vd measured on Cc1cc(Nc2ccc(S(F)(F)(F)(F)F)cc2)n2nc(C(F)(F)F)nc2n1 = 2.3

====

- assay-name: AUC (0 to infinity) in Swiss mouse at 10 mg/kg, po measured up to 24 hrs by LC-MS analysis
- Type: ADME, organism-based
- Parameters: route oral, dose 10 mg/kg, time <=24
- test-context: in vivo
property-label: AUC(0-inf) (µM·h)
Write down the numeric answer in µM·h and omit the unit.

AUC(0-inf) measured on Cc1cc(Nc2ccc(S(F)(F)(F)(F)F)cc2)n2nc(C(F)(F)F)nc2n1 = 22.8

====

- assay-name: Tmax in Swiss mouse at 10 mg/kg, po measured up to 24 hrs by LC-MS analysis
- Format: ADME, organism-based
- test-context: in vivo
property-label: Tmax (h)
Write down the numeric answer in h and omit the unit.

Tmax measured on Cc1cc(Nc2ccc(S(F)(F)(F)(F)F)cc2)n2nc(C(F)(F)F)nc2n1 = 1.2

====

- assay-name: in vitro
- test-context: human, caco-2, pH 7.4
property-label: Papp A→B (nm/s)
Write down the numeric answer in nm/s and omit the unit.

Papp A→B measured on Cc1cc(Nc2ccc(S(F)(F)(F)(F)F)cc2)n2nc(C(F)(F)F)nc2n1 = 540

====

- assay-name: Tmax in Sprague-Dawley rat at 19 mg/kg, po measured up to 24 hrs
- Assay type: ADME, organism-based
- test-context: in vivo
property-label: Tmax (h)
Write down the numeric answer in h and omit the unit.

Tmax measured on Cc1cc(Nc2ccc(S(F)(F)(F)(F)F)cc2)n2nc(C(F)(F)F)nc2n1 = 7

====

Provide the reported EC50 of each item.
- Test system: Plasmodium falciparum
- assay-name: Antiplasmodial activity against Plasmodium falciparum 3D7 Uganda infected in human erythrocytes assessed as parasite killing using albumax media measured after 72 hrs by SYBR Green assay
- Assay type: functional, organism-based
- test-context: 3D7, 72 h
Write down the numeric answer in nM and omit the unit.

EC50 measured on Cc1c(C2(c3ccc(C(F)(F)F)nc3)CC2)c[nH]c1C(=O)NC(C)c1nc[nH]n1 (stereo in doubt; form 1) = 7.5

EC50 measured on Cc1cc(Nc2ccc(S(F)(F)(F)(F)F)cc2)n2nc(C(F)(F)F)nc2n1 = 2.9

EC50 measured on Cc1c(Cc2ccc(C(F)(F)F)nc2)c[nH]c1C(=O)NC(C)c1cnn(C)c1 (stereo in doubt; form 1) = 6.2

====

property-label: EC50 (nM)
Write down the numeric answer in nM and omit the unit.

Measured EC50 (Plasmodium falciparum), entry Cc1cc(C(C)NC(=O)c2[nH]cc(Cc3ccc(C(F)(F)F)cc3)c2C)no1 (stereo in doubt; form 2) : 6200

Measured EC50 (Plasmodium falciparum), entry Cc1c(Cc2ccc(C(F)(F)F)nc2)c[nH]c1C(=O)NC(C)c1cn[nH]c1 (stereo in doubt; form 2) : 370

Measured EC50 (Plasmodium falciparum), entry CNC(=O)c1cc(C(C)NC(=O)c2[nH]cc(C3(c4ccc(C(F)(F)F)nc4)CC3)c2C)n[nH]1 (stereo in doubt; form 2) : 44
